Tested on: PC15
Assay: qHTS profiling for inhibitors of Plasmodium falciparum proliferation (AID 504749);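 further: 0% = DMSO vehicle and full inhibition = artemisinin control; nearly all actives have a fitted effect of over 60% in size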
Settings: P. falciparum in erythrocytes, SYBR Green DNA, 72 h; series mostly up to 28.7 µM
Protocol: NIH National Institute of Allergy and Infectious Diseases [NIAID] NIH Chemical Genomics Center [NCGC] […] Because mature erythrocytes lack DNA, only Plasmodium-derived DNA is detected. NCGC Assay Protocol Summary: The SYBR Green viability assay was adapted from a method described previously (Plouffe et al., 2008). […] The following morning, fluorescence intensity at 485(14) nm excitation and 535(25) nm emission wavelengths was measured on an EnVision (Perkin Elmer) plate reader. […]
Results filed as inconclusive are left out. Activity calls are given as the source filed them. The call rests on the fitted dose curve; in most records, active means well fitted inhibition curve with a large enough effect; inconclusive means small, poorly fitted or top-dose-only effect; inactive means flat fitted curve, though single readings scatter.
Tick one outcome: t for active, f for inactive

> print(dat)
                                   molecule  group.label
1  NC(=O)[C@@H]1CCCN1C(=O)[C@H](Cc1cnc[nH]1)NC(=O)[C@@H]1CCC(=O)N1            f

Ask | # outcome recorded in this test, key = "CN1C(=O)OC(C)(C)C1=O"
Reply | f

Ask | # outcome recorded in this test, key = "Cc1ncc(C[n+]2csc(CCOP(=O)(O)OP(=O)(O)O)c2C)c(N)n1"
Reply | f

---

Tested on: N140
Experiment: qHTS profiling for inhibitors of Plasmodium falciparum proliferation (AID 504749);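 further: 0% = DMSO vehicle and full inhibition = artemisinin control; nearly all actives have a fitted effect of over 60% in size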
Conditions: P. falciparum in erythrocytes, SYBR Green DNA, 72 h; series mostly up to 28.7 µM
Inconclusive results are not listed. Activity calls are given as the source filed them. The call rests on the fitted dose curve; in most records, active means well fitted inhibition curve with a large enough effect; inconclusive means small, poorly fitted or top-dose-only effect; inactive means flat fitted curve, though single readings scatter.
Tick one outcome: 1 (active), -1 (inactive)

Solved entries (count: 4):
Molecule	Group label
CC(CC=O)CCCC(C)(C)O (stereo not drawn)	-1
O=C(/C=C/c1cccc(F)c1)NC1CC1	-1
Cc1c(Cl)cccc1Nc1ncccc1C(=O)O	-1
O=C(CCCCCCCCCCCCC1CCCC1)Nc1ccc(S(=O)(=O)c2ccc(NC(=O)CCCCCCCCCCCCC3CCCC3)cc2)cc1	-1

Ask | # outcome recorded in this test, key = "CC(=O)Nc1ccc(OC(=O)c2ccccc2O)cc1"
Reply | -1

Ask | # outcome recorded in this test, key = "CN1C(=O)OC(C)(C)C1=O"
Reply | -1

Ask | # outcome recorded in this test, key = "OC[C@H]1O[C@@](CO)(O[C@H]2O[C@H](CO)[C@@H](O)[C@H](O)[C@H]2O)[C@@H](O)[C@@H]1O"
Reply | -1

---

Test system: N140
Assay: qHTS profiling for inhibitors of Plasmodium falciparum proliferation (AID 504749);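 further: 0% = DMSO vehicle and full inhibition = artemisinin control; nearly all actives have a fitted effect of over 60% in size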
Details: P. falciparum in erythrocytes, SYBR Green DNA, 72 h; series mostly up to 28.7 µM
Procedure: NIH National Institute of Allergy and Infectious Diseases [NIAID] NIH Chemical Genomics Center [NCGC] […] Because mature erythrocytes lack DNA, only Plasmodium-derived DNA is detected. NCGC Assay Protocol Summary: The SYBR Green viability assay was adapted from a method described previously (Plouffe et al., 2008). […] The following morning, fluorescence intensity at 485(14) nm excitation and 535(25) nm emission wavelengths was measured on an EnVision (Perkin Elmer) plate reader. […]
Results filed as inconclusive are left out. Active and inactive are the calls of the source. Calls follow the shape of the dose curve; as a rule, active = well fitted inhibition curve with a large enough effect; inconclusive = small, poorly fitted or top-dose-only effect; inactive = flat fitted curve, though single readings scatter.
Readout kind: outcome

Worked examples, 6 compounds total:
> print(dat)
                                   compound  readout.kind  recorded.measurement
1                            c1ccc2ccccc2c1       outcome              inactive
2          O=C1c2ccccc2CN2C(=O)c3ccccc3CN12       outcome              inactive
3                   C=Cc1ccc(S(=O)(=O)O)cc1       outcome              inactive
4               Cc1ncc(COP(=O)(O)O)c(CN)c1O       outcome              inactive
5  CC(=O)[C@H]1CC[C@H]2[C@@H]3C=CC4=CC(=O)CC[C@@]4(C)[C@H]3CC[C@]12C       outcome              inactive
6  CC1C(=O)CC2C3(C)CCC2(C(C)C(=O)O)C(=O)C13 (stereo unspecified)       outcome              inactive

Attention now turns to another entry.
What the record says about "O=P(O)(O)OC[C@H]1O[C@](O)(COP(=O)(O)O)[C@@H](O)[C@@H]1O" : outcome is inactive
